- Protocol notes: yeast display, Sf9 membrane polyspecificity reagent, FACS + sequencing; frameworks hold sequencing errors
Observation type: polyreactivity (PSR sort gate)

QVQLVESGGGLVQAGGSLRLSCAASGRIFRDYGMGWYRQAPGKERELVAAINTSGRTYYADSVKGRFTISRDNAKNTVYLQMNSLKPEDTAVYYCATTSRELGELRIFDYWGQGSQVTVSS ... low polyreactivity
QVQLVESGGGLVQAGGSLRLSCAASGSIFRPNAMGWNRQAPGKERELVAAINTSDDSTYYADSVKGRFTISRDNAKNTVYLQMNSLKPEDSAVYYCAADPRTYWTHSYYWGQGTQVTVSS ... low polyreactivity

Sourced from the nanobody polyreactivity screen of Harvey et al. (2022)
